Tested on: OVCAR-8
PROTOCOL_DESCRIPTION: NCI tumour cell line growth inhibition, 48 h
Active and inactive are the calls of the source. Rule as the data show it: active = GI50 up to about 1.1 µM and inactive = higher.
The reply should be one of these categories: Yes for active, No for inactive

Solved entries (count: 3):
# MOLECULE, ASSIGNED_CLASS
measured = [
    ("CCN1CCN(c2nc3ccc([N+](=O)[O-])cc3nc2C(=O)c2ccccc2)CC1", "No"),
    ("O=C1C(CO)=C[C@@H](O)[C@H]2O[C@@H]12", "No"),
    ("O=[N+]([O-])c1cccc2nc3ccccc3c(NCCc3cccc[n+]3[O-])c12", "Yes"),
]

Which outcome was entered for the molecule O=C1CN(C(=O)C2CCCN2C(=O)C2CCCN2)C(=O)CN1 (stereo not given) in this test?
No

# fetch the recorded call for `COC(=O)c1cnn2c1ccc1ccccc12` here
No

What did this assay record as the result for COc1ccc2cc3[n+](cc2c1O)CCc1cc2c(cc1-3)OCO2 [BERBERRUBINE CHLORIDE] ?
No

# outcome recorded in this test, key = `CCN(CC)CCn1c(=O)c2cccnc2n2c3c(=O)n(C)c(=O)n(C)c3nc12`
No

Per the records of this test, what outcome belongs to `COC(=O)[C@H](COC(=O)/C=C/c1ccc(OC(C)=O)c(OC(C)=O)c1)NC(=O)/C=C/c1ccc(OC(C)=O)c(OC(C)=O)c1` ?
No

What outcome does the record of this test show for `CCOP(=O)(/C=C/n1ccc(N)nc1=O)OCC` ?
No

Recorded call for CC1CN=C(N(C)C(=O)Nc2ccc(Cl)c(Cl)c2)S1 (stereo not given) ?
No
